yeast surface expression by entry:
B1: scFv; the commonest letter at each place (parent)
chain 1: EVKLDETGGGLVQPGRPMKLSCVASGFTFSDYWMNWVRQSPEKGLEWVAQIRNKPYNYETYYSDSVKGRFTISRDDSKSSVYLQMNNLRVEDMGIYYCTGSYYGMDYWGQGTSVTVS
chain 2: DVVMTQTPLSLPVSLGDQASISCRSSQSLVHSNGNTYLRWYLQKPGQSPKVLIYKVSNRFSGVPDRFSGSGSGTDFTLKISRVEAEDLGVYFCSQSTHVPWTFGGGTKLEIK

- Variants of: B1
- assay-name: yeast surface expression (ratio to wild type); higher = more expressed
- measurement-context: format: scFv 4-4-20, heavy + light
metric: yeast surface expression

>>> df
                variant_label                    metric  measured
 0        chain 1 D106W W108S  yeast surface expression     0.325
 1        chain 1 G100M G109W  yeast surface expression     0.185
 2          chain 1 W33E V37Y  yeast surface expression         1
 3          chain 1 D31E W33C  yeast surface expression     0.827
 4     chain 1 N35Y W36Y V37D  yeast surface expression      1.04
 5        chain 1 G104E W108G  yeast surface expression     0.296
 6  chain 1 G100S Y103L W108N  yeast surface expression      0.26
 7          chain 1 T28K V37L  yeast surface expression      1.01
 8              chain 1 G109I  yeast surface expression     0.269
 9        chain 1 G100S Y107A  yeast surface expression     0.942
10  chain 1 S101G M105E D106R  yeast surface expression     0.604
11          chain 1 Y32F V37C  yeast surface expression     0.914
12        chain 1 Y103I D106W  yeast surface expression     0.188
13          chain 1 Y32F M34L  yeast surface expression     0.781
14  chain 1 S101Q Y102D Y107P  yeast surface expression     0.361
15          chain 1 T28Y W36Q  yeast surface expression     0.297
16     chain 1 S30I W36V V37Q  yeast surface expression     0.525
17        chain 1 Y107E W108E  yeast surface expression     0.485
18          chain 1 T28R N35G  yeast surface expression      1.03
19          chain 1 T28I W33K  yeast surface expression     0.617
20          chain 1 M34A W36T  yeast surface expression     0.544
21        chain 1 G104S Y107K  yeast surface expression     0.796
22               chain 1 T28E  yeast surface expression      1.04
23          chain 1 D31H M34Y  yeast surface expression     0.671
24     chain 1 T28M D31I W33Y  yeast surface expression     0.462
25          chain 1 T28L M34D  yeast surface expression     0.101
26     chain 1 F29Y D31E W33G  yeast surface expression      1.63
27        chain 1 G104F G109W  yeast surface expression    0.0981
28          chain 1 Y32D N35Y  yeast surface expression     0.498
29          chain 1 N35E V37Q  yeast surface expression     0.427
30        chain 1 S101T M105S  yeast surface expression     0.699
31        chain 1 D106L G109C  yeast surface expression     0.166
32          chain 1 T28G Y32K  yeast surface expression     0.795
33        chain 1 G100E D106M  yeast surface expression      0.17
34  chain 1 Y103M G104M M105L  yeast surface expression     0.562
35              chain 1 M105G  yeast surface expression     0.761
36          chain 1 Y32I M34A  yeast surface expression     0.821
37        chain 1 Y103Q W108N  yeast surface expression     0.415
38               chain 1 W33H  yeast surface expression     0.765
39               chain 1 W36N  yeast surface expression     0.978
40  chain 1 G100W S101D G109V  yeast surface expression     0.286
41          chain 1 S30W Y32Q  yeast surface expression     0.646
42  chain 1 Y103P D106T W108C  yeast surface expression     0.258
43          chain 1 N35R W36P  yeast surface expression     0.809
44        chain 1 Y103W Y107W  yeast surface expression     0.724
45        chain 1 S101I Y107K  yeast surface expression      0.29
